Molecular target: human CCR6 (Homo sapiens, UniProt P51684)
Experiment: Migration (chemotaxis) assay, hCCR6-transfected Ba/F3 cells toward CCL20
Conditions: hCCR6-transfected Ba/F3 cells in human serum; recombinant human CCL20 10 nM; 37° C. 45 minutes; read-out: Potency (IC50 value in the migration assay)
Measure: IC50

Consider the following illustrative entries.
> print(dat)
                            compound.string                                       tgt  reported.measurement
1  CC(C)(C)OC(=O)N[C@@H]1CCCN(c2ccc(S(=O)(=O)N3CCC(Nc4ccc(C(F)(F)F)cn4)CC3)cc2)C1  human CCR6 (Homo sapiens, UniProt P51684)       100 to 10000 nM
2  O=S(=O)(c1ccc(-c2ccc3c(c2)CCC3)cc1)N1CCC(Nc2ccc(C(F)(F)F)cn2)CC1  human CCR6 (Homo sapiens, UniProt P51684)       100 to 10000 nM
3  O=c1[nH]c2cc(-c3ccc(S(=O)(=O)N4CCC(Nc5ccc(C(F)(F)F)cn5)CC4)cc3)cnc2[nH]1  human CCR6 (Homo sapiens, UniProt P51684)                < 5 nM
4  O=S(=O)(c1ccc(N2CCOCC2)cc1)N1CCC(Nc2ccc(C(F)(F)F)cn2)CC1  human CCR6 (Homo sapiens, UniProt P51684)           5 to 100 nM

Hi! Can you tell me IC50 for each of these molecules?
1. Nc1nc2cc(-c3ccc(S(=O)(=O)N4CCC(Nc5ccc(C(F)(F)F)cn5)CC4)cc3)ccc2[nH]1
2. O=C1CCc2cc(-c3ccc(S(=O)(=O)N4CCC(Nc5ccc(C(F)(F)F)cn5)CC4)cc3)ccc2N1
3. O=C1Cc2cc(-c3ccc(S(=O)(=O)N4CCC(Nc5ccc(C(F)(F)F)cn5)CC4)cc3)cc(C(=O)O)c2N1

1: 5 to 100 nM; 2: 5 to 100 nM; 3: 100 to 10000 nM

----------
Molecular target: human CCR6 (Homo sapiens)
Sequence (P51684 1-374): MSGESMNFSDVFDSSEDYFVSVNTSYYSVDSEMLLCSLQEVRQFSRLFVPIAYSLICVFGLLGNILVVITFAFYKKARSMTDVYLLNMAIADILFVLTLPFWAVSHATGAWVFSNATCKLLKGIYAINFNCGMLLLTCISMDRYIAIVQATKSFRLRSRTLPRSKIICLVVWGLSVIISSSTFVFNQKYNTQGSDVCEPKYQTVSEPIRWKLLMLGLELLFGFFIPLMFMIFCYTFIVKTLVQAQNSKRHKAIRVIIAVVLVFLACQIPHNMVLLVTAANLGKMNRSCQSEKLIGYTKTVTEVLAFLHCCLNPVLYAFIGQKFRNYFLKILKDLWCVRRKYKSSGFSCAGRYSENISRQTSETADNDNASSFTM
Assay: Migration (chemotaxis) assay, hCCR6-transfected Ba/F3 cells toward CCL20
Conditions: hCCR6-transfected Ba/F3 cells in human serum; recombinant human CCL20 10 nM; 37° C. 45 minutes; read-out: Potency (IC50 value in the migration assay)
Measure: IC50

Consider the following illustrative entries.
> print(dat)
                            compound.string  reported.measurement
1  O=S(=O)(c1ccc(N2CCC(O)CC2)cc1)N1CCC(Nc2ccc(C(F)(F)F)cn2)CC1       0.005 to 0.1 µM
2  CN(C)C(=O)CC1CCN(c2ccc(S(=O)(=O)N3CCC(Nc4ccc(C(F)(F)F)cn4)CC3)cc2)CC1          0.1 to 10 µM
3  N=[S@](=O)(c1ccc(-c2ccc3oc(N)nc3c2)cc1)N1CCC(Nc2ccc(C(F)(F)F)cn2)CC1       0.005 to 0.1 µM
4  CC(C)(O)OC(=O)N1CCC2(CC1)C(=O)Nc1ccc(-c3ccc(S(=O)(=O)N4CCC(Nc5ccc(C(F)(F)F)cn5)CC4)cc3)cc12       0.005 to 0.1 µM
5  Cc1cc(S(=O)(=O)N2CCC(Nc3ccc(C(F)(F)F)cn3)CC2)ccc1-c1ccc2c(c1)CC(=O)N2          0.1 to 10 µM

Query CS(=O)(=O)NC1CC2(C1)CN(c1ccc(S(=O)(=O)N3CCC(Nc4ccc(C(F)(F)F)cn4)CC3)cc1)C2 yields IC50 of 0.005 to 0.1 µM

----------
Target: human CCR6 (Homo sapiens)
Assay: Migration (chemotaxis) assay, hCCR6-transfected Ba/F3 cells toward CCL20
Conditions: hCCR6-transfected Ba/F3 cells in human serum; recombinant human CCL20 10 nM; 37° C. 45 minutes; read-out: Potency (IC50 value in the migration assay)
pIC50: −log10 of the molar value.
Field: pIC50. Provide a value for each of the molecules that follow.

> print(dat)
                            compound.string                        tgt  reported.measurement
1  CC(=O)N1CCCN(c2ccc(S(=O)(=O)N3CCC(Nc4ccc(C(F)(F)F)cn4)CC3)cc2)CC1  human CCR6 (Homo sapiens)          5.00 to 7.00
2  N#Cc1cn(CCNC(N)=O)c2ncc(-c3ccc(S(=O)(=O)N4CCC(Nc5ccc(C(F)(F)F)cn5)CC4)cc3)cc12  human CCR6 (Homo sapiens)                > 8.30
3  N#Cc1cc2ccc(-c3ccc(S(=O)(=O)N4CCC(Nc5ccc(C(F)(F)F)cn5)CC4)cc3)cc2[nH]1  human CCR6 (Homo sapiens)          7.00 to 8.30
4  O=S(=O)(c1ccc(-c2ccc3[nH]ncc3c2)cc1)N1CCC(Nc2ccc(C(F)(F)F)cn2)CC1  human CCR6 (Homo sapiens)          7.00 to 8.30
5  O=S(=O)(c1ccc(N2[C@@H]3CC[C@H]2C[C@@H](O)C3)cc1)N1CCC(Nc2ccc(C(F)(F)F)cn2)CC1  human CCR6 (Homo sapiens)          7.00 to 8.30

Hi! Can you tell me pIC50 for each of these molecules?
1. N#Cc1c[nH]c2ccc(-c3ccc([S@](=N)(=O)N4CCC(Nc5ccc(C(F)(F)F)cn5)CC4)cc3)cc12
2. O=C(CO)N1CCN(c2ccc(S(=O)(=O)N3CCC(Nc4ccc(C(F)(F)F)cn4)CC3)cc2)CC1
3. O=C1NCCc2ccc(-c3ccc(S(=O)(=O)N4CCC(Nc5ccc(C(F)(F)F)cn5)CC4)cc3)cc21
4. NC(=O)N[C@H]1CCCN(c2ccc(S(=O)(=O)N3CCC(Nc4ccc(C(F)(F)F)cn4)CC3)cc2)C1

7.00 to 8.30
7.00 to 8.30
> 8.30
5.00 to 7.00

Entry source: patent US12012403B2
